# credit: paper PMC5707354

- Target or system: CBD (Human, UniProt Q9UM54-5 1060-1253)
- Sequence (Q9UM54 other isoform, or with tags, fused parts or gaps): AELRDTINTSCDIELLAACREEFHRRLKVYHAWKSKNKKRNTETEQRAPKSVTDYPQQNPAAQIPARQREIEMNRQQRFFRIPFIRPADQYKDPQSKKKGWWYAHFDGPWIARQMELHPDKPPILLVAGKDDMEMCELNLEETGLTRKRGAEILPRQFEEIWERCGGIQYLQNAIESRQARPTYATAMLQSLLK
- Test: fluorescence anisotropy; FAM-DNA 50 nM; assay buffer, salt, pH and temperature not given in the material (duplex annealing in water or 50 mM Tris-HCl pH 7.5, 150 mM NaCl, 3 mM MgCl2)
- Condition details: protein: recombinant; tags: His-tag (pET28); label: 3' FAM
Experimental readout: Kd (nM)
Report as a plain number; the unit nM is understood.

Binder	Units symbol	Reported value
TTAGTTGTTCGTAGTGCTCGTCTGGCTCTGGATTACCCGC (ssDNA) [ss40]	nM	120

Req: What value of Kd has been reported for the following binder? TCTGGCTCTGGATTACCCGC (ssDNA) [ss20]
Resp: 110
